- Substrate: C[C@H](O)[C@H](N)C(=O)O
- protocol text: purified protein
- Type: biochemical, Escherichia coli
- condition: 20 mM potassium phosphate, pH 7.0, 30 °C, retro-aldol cleavage
value kind: kcat (s⁻¹)
Provide the reading as a plain figure in s⁻¹.

Entry low-specificity Escherichia coli L-threonine aldolase (eTA) (Escherichia coli K-12; F87D) (protein) MIDLRSDTVTRPSRAMLEAMMAAPVGDDVYGDDPTVNALQDYAAELSGKEAAIFLPTGTQANLVALLSHCERGEEYIVGQAAHNYLDEAGGAAVLGSIQPQPIDAAADGTLPLDKVAMKIKPDDIHFARTKLLSLENTHNGKVLPREYLKEAWEFTRERNLALHVDGARIFNAVVAYGCELKEITQYCDSFTICLSKGLGTPVGSLLVGNRDYIKRAIRWRKMTGGGMRQSGILAAAGIYALKNNVARLQEDHDNAAWMAEQLREAGADVMRQDTNMLFVRVGEENAAALGEYMKARNVLINASPIVRLVTHLDVSREQLAEVAAHWRAFLAR , kcat reported as 1.95
